The measurements presented in this section are drawn from patent US8916599B2.

- tested.on: recombinant human mPGES-1 (Homo sapiens)
- Construct: made in house; host or cells: Rosetta E. coli (microsomal/membrane fraction)
- Sequence (O14684 1-152): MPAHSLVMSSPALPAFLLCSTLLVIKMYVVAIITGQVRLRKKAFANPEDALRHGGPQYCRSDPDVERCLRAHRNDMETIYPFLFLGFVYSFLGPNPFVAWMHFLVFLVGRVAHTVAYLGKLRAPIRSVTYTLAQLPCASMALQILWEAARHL
- test.method.notes: mPGES-1 inhibition test (microsomes, PGH2 substrate, HTRF detection of PGE2)
- Format: biochemical
- measurement.conditions: inhibition of mPGES-1 at 10 μM
Quick reference for inhibition at 10 µM among some molecules
Use % as the unit, but write only the number.

Study these solved cases before continuing.
molecule: O=C(Nc1ccc(Br)cc1)c1cc2nc(Nc3c(F)ccc(F)c3Cl)[nH]c2cc1OCC(F)(F)F
tested.on: recombinant human mPGES-1 (Homo sapiens)
observed.result: 100

molecule: Cn1c(Nc2c(Cl)cccc2Cl)nc2cc(C(=O)Nc3ccc(Br)cc3)c(F)cc21
tested.on: recombinant human mPGES-1 (Homo sapiens)
observed.result: 93

Request: Please list inhibition at 10 µM recorded for the molecule O=C(N[C@H]1CC[C@H](C(F)(F)F)CC1)c1cc2nc(Nc3c(Cl)cc(F)cc3Cl)[nH]c2cc1OCCF
Result: 96

Request: Please list inhibition at 10 µM recorded for the molecule COc1cc2[nH]c(Nc3c(Cl)ccc(Cl)c3F)nc2cc1C(=O)N[C@H]1CC[C@H](C(F)(F)F)CC1
Result: 100

Request: Please list inhibition at 10 µM recorded for the molecule COc1cc2c(cc1C(=O)NCc1ncccc1Cl)nc(Nc1c(Cl)cccc1Cl)n2C
Result: 100

###

- tested.on: recombinant human mPGES-1 (Homo sapiens, UniProt O14684)
- Construct: made in house; host or cells: Rosetta E. coli (microsomal/membrane fraction)
- Sequence (O14684 1-152): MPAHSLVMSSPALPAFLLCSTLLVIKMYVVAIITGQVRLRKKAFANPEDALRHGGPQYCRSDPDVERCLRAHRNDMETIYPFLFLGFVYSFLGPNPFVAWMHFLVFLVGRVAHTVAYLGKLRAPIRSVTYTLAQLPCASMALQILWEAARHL
- test.method.notes: mPGES-1 inhibition test (microsomes, PGH2 substrate, HTRF detection of PGE2)
- Assay type: biochemical
- measurement.conditions: inhibition of mPGES-1 at 10 μM
- Method: Microsomes from Rosetta E. coli bacteria expressing recombinant human mPGES-1 is dissolved in 0.1 M KPi pH 7.4 buffer containing 2.5 mM GSH. 50 μl of the enzyme is subsequently dispensed in a 384-well plate. […] After over night incubation the fluorescence is measured by the use of an appropriate microplate reader. […] The extent of the specific FRET is measured as a ratio of the emission intensity at 665 nm vs. that at 620 nm. […]
Quick reference for inhibition at 10 µM among some compounds
Use % as the unit, but write only the number.

Study these solved cases before continuing.
compound: Cc1cc(C)c(Nc2nc3cc(C(=O)Nc4ccc(Br)cc4)ccc3n2C)c(Cl)c1 [Example 489]
unit.abbrev: %
inhibition at 10 µM: 98
//
compound: O=C(O)CCn1c(Nc2c(Cl)cccc2Cl)nc2cc(C(=O)Nc3cc(Cl)ccn3)ccc21 [Example 265]
unit.abbrev: %
inhibition at 10 µM: 97
//
compound: Cn1c(Nc2ccc(C(N)=O)cc2Cl)nc2cc(C(=O)Nc3ccc(Br)cc3)ccc21 [Example 543]
unit.abbrev: %
inhibition at 10 µM: 91
//
compound: Cc1ccc(Cl)c(Nc2nc3cc(C(=O)Nc4ccc(Br)cc4)ccc3[nH]2)c1Cl [Example 322]
unit.abbrev: %
inhibition at 10 µM: 100
//
compound: O=C(Nc1ccc(Br)c(F)c1)c1cc2nc(Nc3c(Cl)cccc3Cl)[nH]c2cc1Cl [Example 54]
unit.abbrev: %
inhibition at 10 µM: 96
//
compound: Cc1cc2[nH]c(Nc3c(Cl)cccc3Cl)nc2cc1C(=O)NC1CCC(C(C)(C)C)CC1 (centres unmarked) [compound 148]
unit.abbrev: %
inhibition at 10 µM: 100
//
compound: Cc1cc(NC(=O)c2cc3nc(Nc4c(Cl)cccc4Cl)n(C)c3cc2F)ncc1Cl [Example 127]
unit.abbrev: %
inhibition at 10 µM: 100

Request: Please list inhibition at 10 µM recorded for the compound COc1cc2c(cc1C(=O)NC1CCC(C)(C)CC1)nc(Nc1c(Cl)ccc(Cl)c1F)n2C [Example 621]
Result: 99

###

- tested.on: recombinant human mPGES-1 (Homo sapiens, UniProt O14684)
- Construct: made in house; host or cells: Rosetta E. coli (microsomal/membrane fraction)
- test.method.notes: mPGES-1 inhibition test (microsomes, PGH2 substrate, HTRF detection of PGE2)
- Assay type: biochemical
- measurement.conditions: inhibition of mPGES-1 at 10 μM
Quick reference for inhibition at 10 µM among some compounds
Use % as the unit, but write only the number.

Study these solved cases before continuing.
structure.string: O=C(N[C@H]1CC[C@H](C(F)(F)F)CC1)c1cc2nc(Nc3c(Cl)cccc3Cl)[nH]c2cc1F
unit.abbrev: %
observed.result: 100
--
structure.string: CCn1c(Nc2c(Cl)cccc2Cl)nc2cc(C(=O)Nc3cc(Cl)ccn3)ccc21
unit.abbrev: %
observed.result: 99
--
structure.string: Cc1cc2[nH]c(Nc3c(Cl)cccc3Cl)nc2cc1C(=O)Nc1ccc(C(C)(C)C)cc1
unit.abbrev: %
observed.result: 99

Turning to the following compound.
Request: Please list inhibition at 10 µM recorded for the compound O=C(Nc1nc2c(s1)CCCC2)c1ccc2[nH]c(Nc3c(Cl)cccc3Cl)nc2c1
Result: 100

###

Quick reference for inhibition at 10 µM among some molecules
- tested.on: recombinant human mPGES-1 (Homo sapiens, UniProt O14684)
- Construct: made in house; host or cells: Rosetta E. coli (microsomal/membrane fraction)
- Sequence (O14684 1-152): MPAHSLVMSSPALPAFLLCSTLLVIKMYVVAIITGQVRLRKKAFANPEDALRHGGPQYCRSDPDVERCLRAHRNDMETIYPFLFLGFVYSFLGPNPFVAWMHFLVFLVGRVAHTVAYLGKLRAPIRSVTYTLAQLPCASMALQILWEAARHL
- test.method.notes: mPGES-1 inhibition test (microsomes, PGH2 substrate, HTRF detection of PGE2)
- Assay type: biochemical
- measurement.conditions: inhibition of mPGES-1 at 10 μM
- Description: Microsomes from Rosetta E. coli bacteria expressing recombinant human mPGES-1 is dissolved in 0.1 M KPi pH 7.4 buffer containing 2.5 mM GSH. 50 μl of the enzyme is subsequently dispensed in a 384-well plate. […] After over night incubation the fluorescence is measured by the use of an appropriate microplate reader. […] The extent of the specific FRET is measured as a ratio of the emission intensity at 665 nm vs. that at 620 nm. […]
Use % as the unit, but write only the number.

Study these solved cases before continuing.
molecule: COc1cc2[nH]c(Nc3c(Cl)cccc3Cl)nc2cc1C(=O)NCc1ncccc1C1CC1 [Example 407]
inhibition at 10 µM, %: 100

molecule: Cn1c(Nc2c(Cl)cccc2Cl)nc2cc(C(=O)NCc3ccccn3)c(F)cc21 [Example 548]
inhibition at 10 µM, %: 93

molecule: COc1cc2[nH]c(Nc3c(Cl)ccc(Cl)c3F)nc2cc1C(=O)NC1CCCCC1 [Example 612]
inhibition at 10 µM, %: 99

molecule: O=C(Nc1ccc(Br)cc1)c1cc2[nH]c(Nc3c(Cl)cccc3Cl)nc2cc1F [Example 144]
inhibition at 10 µM, %: 97

molecule: COc1cc2c(cc1C(=O)Nc1ccc(Br)cc1)nc(Nc1cc(C(F)(F)F)ccc1C(F)(F)F)n2C [Example 640]
inhibition at 10 µM, %: 100

Request: Please report inhibition at 10 µM with recombinant human mPGES-1 (Homo sapiens, UniProt O14684) for item O=C(Nc1cccc(Cl)c1)c1cc2nc(Nc3c(Cl)cccc3Cl)[nH]c2cc1Cl [Example 56] .
Result: 100

Request: Please report inhibition at 10 µM with recombinant human mPGES-1 (Homo sapiens, UniProt O14684) for item Cn1c(Nc2c(F)cccc2Cl)nc2cc(C(=O)NC3CCC(C)(C)CC3)c(F)cc21 [Example 430] .
Result: 100

Request: Please report inhibition at 10 µM with recombinant human mPGES-1 (Homo sapiens, UniProt O14684) for item CCc1ccnc(NC(=O)c2ccc3[nH]c(Nc4c(Cl)cccc4Cl)nc3c2)c1 [Example 120] .
Result: 96

Request: Please report inhibition at 10 µM with recombinant human mPGES-1 (Homo sapiens, UniProt O14684) for item Cn1c(Nc2c(Cl)cccc2Cl)nc2cc(C(=O)N[C@H]3CC[C@H](C(F)F)CC3)c(F)cc21 [Example 475] .
Result: 100

Request: Please report inhibition at 10 µM with recombinant human mPGES-1 (Homo sapiens, UniProt O14684) for item COc1cc2[nH]c(Nc3c(Cl)ccc(CC#N)c3Cl)nc2cc1C(=O)Nc1ccc(Br)cc1 [Example 639] .
Result: 99
